# measurement-target: Protein translocase subunit SecA (Escherichia coli (strain K12))
# protocol-text: Assay to Identify E. coli SecA ATPase Inhibitors
# Type: functional
# Parameters: scale not given: direction of the effect not stated beside the values
# test-conditions: 30 µM
Measured potencies and affinities stand elsewhere.

{"columns": ["compound", "measure-unit", "Percent Effect"],
 "data": [
  ["O=C(NCc1cccs1)C1CN(C(=O)c2cccs2)CC12CCOCC2 (stereo unspecified)", "%", -3.46],
  ["O=C(O)[C@@H]1CN(C(=O)c2ccc3[nH]nnc3c2)C[C@H]1c1cccc(F)c1", "%", -4.68],
  ["COCC(=O)NCCn1ccc2c(OC)cccc21", "%", -0.301],
  ["Cc1[nH]nc2ncc(C(=O)N3CCN(CC(C)C)CC3)cc12", "%", -2.98],
  ["CC(NC(=O)CNCCn1cccn1)c1ccc2c(c1)CCCC2 (stereo unspecified)", "%", -8.2],
  ["CN(Cc1ccco1)[C@@H]1CN(C(=O)c2ccnnc2)C[C@@H]2CCCO[C@@H]21", "%", -2.86],
  ["O=C(NCCN1CCCCC1)c1nc(-c2ccc3cc[nH]c3c2)no1", "%", -1.02],
  ["O=C(CN(Cc1ccccc1)CC1CCOCC1)NC(=O)NC1CC1", "%", -9.18],
  ["O=C(c1cccs1)N1CCC2(C1)c1ccccc1S(=O)(=O)N2CC1CC1 (stereo unspecified)", "%", -4.28],
  ["Cc1ccc(CN2CCC3(CC2)CC(c2cccnc2)CO3)s1 (stereo unspecified)", "%", -5.83],
  ["Cc1ccccc1C(=O)CN1C(=O)c2ccccc2CS1(=O)=O", "%", -2.33]
]}

###

# Tested on: Trypanosoma cruzi
# protocol-text: Trypanosoma cruzi phosphomannomutase and mannose-1-phosphate guanylyltransferase assay
# Format: functional
# Design: scale not given: direction of the effect not stated beside the values
# test-conditions: 10 µM

{"columns": ["molecule", "measure-unit", "Percent Effect"],
 "data": [
  ["COc1nn(C)c2c1CCCN(C(=O)c1ccccc1)C2", "%", -1.76],
  ["O=C(c1cccc(Cl)c1)N1CC[C@H]2[C@H]1CCN2CC1CCOCC1", "%", 0.197],
  ["CC(CNC(=O)N1CCN(c2cnccn2)CC1)Cc1cccs1 (stereo not drawn)", "%", -1.95],
  ["COc1cccc(CN2CCCCCC2c2cccs2)c1O (stereo not drawn)", "%", -3.65],
  ["O=C1CC[C@H]2[C@H](CCN2C(=O)C2CCCO2)N1CCN1CCCC1 (stereo partly drawn)", "%", 0.393],
  ["O=C(c1cc(Cl)c2c(c1)OCO2)N1CCN(c2ccccn2)CC1", "%", 1.37],
  ["O=C(c1cccc(F)c1)N1CCN2C[C@H](OCc3cccnc3)C[C@H]2C1", "%", -3.15],
  ["Cc1ccc(-c2cc(C(=O)NC(C)C(=O)N3CCCCC3)on2)cc1 (stereo not drawn)", "%", 4.19],
  ["Cc1nnc(CN2CCN(CC(O)c3cccc(F)c3)CC2)n1C (stereo not drawn)", "%", 2.64],
  ["COc1cc(C)c(C(C)NC(=O)Nc2nnc(C)s2)cc1OC (stereo not drawn)", "%", 7.72],
  ["CCOC(=O)CCNC(=O)N1CCN(c2nc3ccccc3n2C)CC1", "%", -5.42],
  ["CSCc1cccc(S(=O)(=O)N2CCSCC2)c1", "%", -4.91],
  ["COc1ccc(C2CCCN2S(=O)(=O)N(C)CC(C)C)cc1 (stereo not drawn)", "%", -2.62],
  ["CCCc1nc(C)cc(N2CCC3(CCC(=O)N(CCOC)C3)CC2)n1", "%", -0.489],
  ["Cn1cnnc1C1CCCN(C(=O)NCCNc2ccccn2)C1 (stereo not drawn)", "%", 0.881],
  ["C=C1c2ccccc2C(=O)N1CCC(=O)N1CCNC(=O)C1", "%", -2.07],
  ["CCC(=O)NCc1cc(Br)ccc1OC(F)F", "%", 3.41],
  ["O=C(NCCC(=O)N1CCCc2ccccc21)c1c(O)cc(F)cc1F", "%", 6.95],
  ["c1ncc(Nc2nccc(C3CCCCN3CC3CCCCC3)n2)cn1 (stereo not drawn)", "%", -0.591],
  ["CCOc1cccc(C(C)NCc2ccc(OC)c(OC)c2OC)c1 (stereo not drawn)", "%", 8.08],
  ["CC(C)OCCN(Cc1cccc(O)c1)C1CCC(O)CC1 (stereo not drawn)", "%", -5.96],
  ["O=S(=O)(Nc1cnn(C2CCOCC2)c1)c1c(F)cccc1F", "%", -2.66],
  ["COc1c(C2CCCN2C(=O)c2csc(C(C)C)n2)c(C)nn1C (stereo not drawn)", "%", 0.187]
]}

###

# measurement-target: Tyrosyl-tRNA synthetase, putative (Trypanosoma cruzi (strain CL Brener))
# protocol-text: Trypanosoma cruzi tyrosyl tRNA synthetase (TcYRS) _High Tyrosine SOP; further: in the data most compounds retested in dose-response had high values
# Assay type: functional
# Design: scale not given: direction of the effect not stated beside the values
# test-conditions: 30 µM
Below, each entry is listed alongside its reported Percent Effect.

{"columns": ["compound", "measurement-target", "measure-unit", "Percent Effect"],
 "data": [
  ["Cc1nnc2n1CCN(C(=O)c1cc(Cl)c(Cl)n1C)C2", "Tyrosyl-tRNA synthetase, putative (Trypanosoma cruzi (strain CL Brener))", "%", -1.47],
  ["O=C1CCSCC(C(=O)N2CCCC2)N1 (stereo not given)", "Tyrosyl-tRNA synthetase, putative (Trypanosoma cruzi (strain CL Brener))", "%", 1.07],
  ["CC1=N[C@@]2(CC[C@@H]3CN(Cc4ccccc4F)C[C@@H]32)C(=O)N1CC1CC1", "Tyrosyl-tRNA synthetase, putative (Trypanosoma cruzi (strain CL Brener))", "%", 4.95],
  ["COC(=O)N1CCCC(C(=O)NCc2cc3cccc(OC)c3o2)C1 (stereo not given)", "Tyrosyl-tRNA synthetase, putative (Trypanosoma cruzi (strain CL Brener))", "%", 3.45],
  ["Cc1oncc1C(=O)N1CCC2(CC1)CC(c1ccccc1)C(=O)N2C (stereo not given)", "Tyrosyl-tRNA synthetase, putative (Trypanosoma cruzi (strain CL Brener))", "%", -37.5],
  ["COc1ccc(CNC(=O)N(Cc2ccc(F)cc2F)C2CC2)cn1", "Tyrosyl-tRNA synthetase, putative (Trypanosoma cruzi (strain CL Brener))", "%", 3.45],
  ["CC(C)c1nccn1C1CCCN(C(=O)c2cnn(C)c2C2CC2)C1 (stereo not given)", "Tyrosyl-tRNA synthetase, putative (Trypanosoma cruzi (strain CL Brener))", "%", 13.3],
  ["Cc1ccc(CNC(c2ccccc2)c2nccn2C)cc1C (stereo not given)", "Tyrosyl-tRNA synthetase, putative (Trypanosoma cruzi (strain CL Brener))", "%", 10.9],
  ["COC1CCN(C(=O)CCc2c(C)nc3ccnn3c2C)CC1", "Tyrosyl-tRNA synthetase, putative (Trypanosoma cruzi (strain CL Brener))", "%", 4.43],
  ["c1ccc(-c2cnc(CN3CCCC3Cn3cncn3)o2)cc1 (stereo not given)", "Tyrosyl-tRNA synthetase, putative (Trypanosoma cruzi (strain CL Brener))", "%", 7.39],
  ["NC(=O)C1CCN(C(=O)Cn2nc(-c3ccccc3)oc2=O)C1 (stereo not given)", "Tyrosyl-tRNA synthetase, putative (Trypanosoma cruzi (strain CL Brener))", "%", 2.15],
  ["O=C(c1cnc(-c2cccs2)s1)N1CCCC(n2cccn2)C1 (stereo not given)", "Tyrosyl-tRNA synthetase, putative (Trypanosoma cruzi (strain CL Brener))", "%", 5.42],
  ["O=C(NCCCO)C1CC(=O)N(c2n[nH]c3cccc(F)c23)C1 (stereo not given)", "Tyrosyl-tRNA synthetase, putative (Trypanosoma cruzi (strain CL Brener))", "%", 5.29],
  ["CNc1cc2c(nn1)CCN(C(=O)c1cccc3c1OCO3)C2", "Tyrosyl-tRNA synthetase, putative (Trypanosoma cruzi (strain CL Brener))", "%", 4.85],
  ["CC(C)c1nc(CN2CCCCC2)cs1", "Tyrosyl-tRNA synthetase, putative (Trypanosoma cruzi (strain CL Brener))", "%", -2.86]
]}

###

# measurement-target: Arginase-2, mitochondrial (Homo sapiens)
# Sequence (whole entry): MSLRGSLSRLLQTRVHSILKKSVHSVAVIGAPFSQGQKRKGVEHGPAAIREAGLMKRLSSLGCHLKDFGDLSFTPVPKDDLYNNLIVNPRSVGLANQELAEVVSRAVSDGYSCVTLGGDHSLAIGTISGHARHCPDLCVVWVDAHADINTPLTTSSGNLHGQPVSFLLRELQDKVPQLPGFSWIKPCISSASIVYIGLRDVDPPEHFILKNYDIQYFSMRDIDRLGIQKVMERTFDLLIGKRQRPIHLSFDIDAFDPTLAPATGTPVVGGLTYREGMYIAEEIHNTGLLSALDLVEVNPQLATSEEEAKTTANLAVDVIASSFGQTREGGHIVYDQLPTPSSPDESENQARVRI
# protocol-text: in vitro enzyme assay to detect the production of urea directly proportional to the activity of Arginase II; further: in the data most compounds retested in dose-response had high values
# Type: functional
# Set-up: scale not given: direction of the effect not stated beside the values
# test-conditions: 33.3 µM
Catalogue of molecules with associated Percent Effect
metric: Percent Effect (%)

{"columns": ["molecule", "value-reported"],
 "data": [
  ["CCS(=O)(=O)CCN1CCCC1c1noc(C2CC2)n1 (stereo not drawn)", 0],
  ["COc1ccc(CCN2CCCC(CN(C)Cc3ccc(C)o3)C2)cc1 (stereo not drawn)", 4.71],
  ["Cc1cccc2[nH]c(C3CCN(C(=O)c4ccnn4C)CC3)nc12", -23.4]
]}
